Source of measurements: patent US20220185900A1

biological target: T1, hRET.mFc (human); assay: SPR Biacore T200, mAb capture, 37 C
T1 construct: also called dimeric human RET
RECORDED_ENDPOINT: kon (M⁻¹ s⁻¹)
Give a bare numeral; the unit M⁻¹ s⁻¹ is implied.

{"BINDER": "H4H8062P (antibody, human IgG4, V domains shown, human IgG4 Fc (H4H prefix)) VH: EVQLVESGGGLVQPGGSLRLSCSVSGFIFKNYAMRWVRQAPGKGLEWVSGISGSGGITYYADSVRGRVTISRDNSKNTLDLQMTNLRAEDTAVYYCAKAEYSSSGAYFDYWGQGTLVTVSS VL: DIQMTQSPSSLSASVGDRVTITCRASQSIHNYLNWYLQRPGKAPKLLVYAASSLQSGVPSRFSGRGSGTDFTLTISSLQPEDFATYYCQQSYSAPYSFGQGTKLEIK", "READOUT_UNIT": "M⁻¹ s⁻¹", "REPORTED_VALUE": 366000}

Then this binder:
### Prompt Give the measured kon of H4H8087P (antibody, human IgG4, V domains shown, human IgG4 Fc (H4H prefix)) VH: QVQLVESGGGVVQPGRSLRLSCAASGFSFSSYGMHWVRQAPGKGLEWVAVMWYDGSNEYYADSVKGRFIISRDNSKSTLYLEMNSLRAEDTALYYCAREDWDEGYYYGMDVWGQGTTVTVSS VL: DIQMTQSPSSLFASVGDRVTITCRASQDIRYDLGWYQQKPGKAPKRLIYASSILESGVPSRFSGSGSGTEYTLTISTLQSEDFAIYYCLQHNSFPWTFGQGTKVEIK .
### Response 1.26e+06
